Where do these numbers come from? They come from ChEMBL document CHEMBL3433997.

biological target: Glucose transporter (Leishmania mexicana) (UniProt O61059); experiment: ST_JUDE_LEISH: Cytotoxicity at 2uM final concentration against transgenic Leishmania Mexicana promastigotes LmGT2 that are glucose transport deficient and complemented with the L. Mexicana glucose transporter 2. Activity is measured by DNA content using SYBR green in vitro; format: functional
measureName: inhibition (%)
# number only, unit % dropped from output

Observe how each entry below is paired with its result.
CCN(CC)CCNC(=O)c1ccc(N/C=C2\C(=O)Nc3ccc(S(=O)(=O)Cc4c(Cl)cccc4Cl)cc32)cc1 | -1.08
CCN(CC)CCN(Cc1ccc(-c2ccc(C(F)(F)F)cc2)cc1)C(=O)Cn1c(CCc2cccc(F)c2F)nc(=O)c2cccnc21 | 1.66
CCOC(=O)c1cccc(NC(=O)Nc2cccc(-c3ncc(OCCCN)c4c3nc(-c3nonc3N)n4CC)c2)c1 | 3.37
COc1ccc(CN2CCN(Cc3cc(Cl)ccc3O)CC2CCO)c(C)c1C (centres undefined) | 0.13
NCCCOc1cnc(-c2ccccc2)c2nc(-c3nonc3N)n(CCc3ccccc3)c12 | 1.33

Param item = CC(C)(C)OC(=O)NCc1ccc(Nc2nnc(-c3cccc(C(=O)NCc4cc(C(F)(F)F)cc(C(F)(F)F)c4)c3)o2)cc1 ; retrieve measured inhibition.
5.41

Param item = Cc1nc(N)nc(N)c1-c1ccc(Cl)cc1 ; retrieve measured inhibition.
2.37

Param item = CC1CCN(C(=O)C(Cc2c[nH]c3ccccc23)NS(=O)(=O)c2ccc(Cl)cc2)CC1 (centres undefined) ; retrieve measured inhibition.
-0.09

Param item = Cc1cc(NCCC(=O)Nc2ccccc2)nc(NCC2CCCCC2)n1 ; retrieve measured inhibition.
3.6

Param item = CCN(CC)CCCC(C)Nc1nc(C=Cc2ccc(Br)cc2)nc2cc(Cl)ccc12 (centres undefined) ; retrieve measured inhibition.
10.2

----------
inhibition reference
biological target: Solute carrier family 2, facilitated glucose transporter member 1 (Homo sapiens); experiment: ST_JUDE_LEISH: Cytotoxicity at 2uM final concentration against transgenic Leishmania Mexicana promastigotes LmGLUT1 that are glucose transport deficient and complemented with the human glucose transporter GLUT1. Activity is measured by DNA content using SYBR green in vitro; type: functional
# number only, unit % dropped from output

Observe how each entry below is paired with its result.
COc1cc(OC)c(NC(=O)C2c3ccccc3C(=O)N(CC(C)C)C2c2cccs2)cc1Cl (centres undefined) | -4.11
O=C(/C=C/c1ccc(CNCCN2CCOCC2)cc1)NCCc1ccccc1 | 0.21
C[C@H](NC(=O)c1c(CN2CCN(C(=O)C(C)(C)C)CC2)c(-c2cccs2)nc2ccccc12)C1CCCCC1 | 6.07
CCOC(=O)c1nc(-c2cc(Cl)nc(Cl)c2)[nH]c1NC(=S)NCCCN1CCOCC1 | 2.49
COc1cc(NC(=O)N2CCc3ccc(OCCN(C(C)C)C(C)C)cc32)cc(C(F)(F)F)c1 | 1.98
CCCc1ccc(NC(=O)c2cccc(CN3CCCN(Cc4cccc(C#N)c4)CC3)c2)cc1 | 3.6

Param item = COc1ccc(CC(=O)NC(CCCN2CCC(c3ccccc3)CC2)c2ccc(Cl)c(Cl)c2)cc1OC (centres undefined) ; retrieve measured inhibition.
1.29

Param item = COc1c(C2CCN(CCCCNC(=O)c3cc(-c4ccc(C#N)cc4)n[nH]3)CC2)ccc2c1CCCC2 ; retrieve measured inhibition.
-0.72

Param item = Cc1nc(Nc2ccc(F)cc2)nc(N2CCc3ccccc3C2C)c1CO (centres undefined) ; retrieve measured inhibition.
5.38

----------
biological target: Hexose transporter 1 (Plasmodium falciparum) (UniProt O97467); test: ST_JUDE_LEISH: Cytotoxicity at 2uM final concentration against transgenic Leishmania Mexicana promastigotes LmPfHT that are glucose transport deficient and complemented with the Plasmodium falciparum hexose transporter. Activity is measured by DNA content using SYBR green in vitro; format: functional
inhibition reference
# number only, unit % dropped from output

CCN(CC)CCCC(C)N=c1cc(C=Cc2ccccc2Cl)[nH]c2cc(Cl)ccc12 (stereo not given) | 3.03
C=CCNC(=O)C(C)c1ccc2cc(OC)ccc2c1 (stereo not given) | 0.77
Cc1ccc(N2C(N)=NC(N)=NC2c2ccccc2)cc1 (stereo not given) | 2.24

Param item = COc1cccc(CCN(Cc2ccccc2-c2ccc(CNC3CC(C)(C)NC(C)(C)C3)cc2)C(=O)NC2CCCCC2)c1 ; retrieve measured inhibition.
0.87

Param item = CC(C)(C)c1ccc(CNC(=O)/C=C/c2ccc(-c3nc4cc(C(C)(C)C)ccc4[nH]3)cc2)cc1 ; retrieve measured inhibition.
3.4

Param item = CC1(C)NC(N)=NC(=N)N1OCCCOc1ccc(N)cc1 ; retrieve measured inhibition.
-0.16

Param item = Cc1ccc(Nc2ccnc(Nc3ccc4c(c3)CS(=O)(=O)C4)n2)cc1O ; retrieve measured inhibition.
3.19

Param item = O=S(=O)(c1ccccc1)C1CC1 ; retrieve measured inhibition.
0.38

Param item = CCc1nc(N)nc(N)c1-c1ccc2c(c1)CCCC2 ; retrieve measured inhibition.
3.35

Param item = CCOC(=O)c1ccc(N2CCN(CCCNC(=O)/C(=C/C=C/c3cc4cc(Cl)c(Cl)cc4[nH]3)OC)CC2)cc1 ; retrieve measured inhibition.
3.47

----------
inhibition reference
target: Solute carrier family 2, facilitated glucose transporter member 1 (Homo sapiens); experiment: ST_JUDE_LEISH: Cytotoxicity at 2uM final concentration against transgenic Leishmania Mexicana promastigotes LmGLUT1 that are glucose transport deficient and complemented with the human glucose transporter GLUT1. Activity is measured by DNA content using SYBR green in vitro; type: functional
# number only, unit % dropped from output

Observe how each entry below is paired with its result.
Oc1cc(-c2nc(C3(CNCc4ccc(Cl)cc4)CCCCC3)[nH]c2-c2ccncc2)ccc1Cl | 4.11
COc1ccc(C2=CCN(c3ccc(Cl)c(Cl)c3)C2=O)cc1OCCN1CCCCC1 | 3.36

Param item = CCCc1cc(Cc2cnc(N)nc2N)cc(CCC)c1OCCCCC(=O)OC ; retrieve measured inhibition.
3.01

Param item = CS(=O)(=O)CCNCc1cccc(-c2ccc3c(Nc4ccc(Oc5cccnc5)cc4)ccnc3c2)c1 ; retrieve measured inhibition.
-1.35

Param item = COc1ccc(C(=O)Nc2ccc3oc(-c4ccc(C(F)(F)F)cc4)cc3c2)cc1CCCN(C)C ; retrieve measured inhibition.
1.78

Param item = O=C(Nc1ccc(Cl)c(Cl)c1)C1CCC(=O)N1[C@@H](Cc1ccccc1)C(=O)NCCc1ccc(Cl)cc1 (some centres undefined) ; retrieve measured inhibition.
0.51

Param item = CCCCCCCN1CCC(CCNc2ccnc3ccc(OC)cc23)CC1 ; retrieve measured inhibition.
0.51

Param item = CCCN1CCC(c2c[nH]c3ccc(NC(=O)Nc4cccc(Cl)c4Cl)cc23)CC1 ; retrieve measured inhibition.
3.84

Param item = Cc1cccc2nc(-c3ccc(-c4ccc(NC(=O)NCc5ccc(F)cc5)cc4)cc3)[nH]c12 ; retrieve measured inhibition.
0.56

----------
biological target: Glucose transporter (Leishmania mexicana) (UniProt O61059); experiment: ST_JUDE_LEISH: Cytotoxicity at 2uM final concentration against transgenic Leishmania Mexicana promastigotes LmGT2 that are glucose transport deficient and complemented with the L. Mexicana glucose transporter 2. Activity is measured by DNA content using SYBR green in vitro; type: functional
inhibition reference
# number only, unit % dropped from output

COc1ccc(-c2csc3nc(C)nc(Cl)c23)cc1OC | 0.63
O=C(/C=C/c1ccc(Cl)c(Cl)c1)NCCCCCN1CCC(C(=O)Nc2cccc(Cl)c2)CC1 | 2.09
COc1cccc(C(O)CNc2ccnc(Nc3cccc(-c4csc(C)n4)c3)n2)c1 (centres undefined) | 1.05

Param item = CN1CCN(C(C(=O)NCc2cc(Cl)cc(Cl)c2)c2ccc(NC(=O)Nc3ccccc3)cc2)CC1 (centres undefined) ; retrieve measured inhibition.
1.21

Param item = O=C(Nc1cc(C(F)(F)F)cc(C(F)(F)F)c1)Nc1ccc(Cl)c(Cl)c1 ; retrieve measured inhibition.
1.22

Param item = COc1cc(Cc2cnc(N)nc2N)cc(OCCCCCCN2C(=O)c3ccccc3C2=O)c1OC ; retrieve measured inhibition.
5.48

Param item = CCN(CC)Cc1cc(NC(=O)c2ccccc2O)ccc1Oc1ccc(Cl)cc1 ; retrieve measured inhibition.
1.46

Param item = CC(Cc1ccc(NC(=O)c2ccc(CC(C)NCc3ccc(Cl)c(Cl)c3)cc2)cc1)NCCc1cccc(Cl)c1 (centres undefined) ; retrieve measured inhibition.
-0.17

Param item = Cc1c(F)cc(C(=O)NC2CC2)cc1-c1ccc2c(cnn2S(=O)(=O)c2cccs2)c1 ; retrieve measured inhibition.
0.02

Param item = C=CCN1Cc2c(O)cccc2C(c2ccc(O)c(O)c2)C1 (centres undefined) ; retrieve measured inhibition.
4.91

Param item = COc1ccc(Cl)cc1N1CCN(CCCNC(=O)c2ccc(-c3nc4cnccc4[nH]3)c(Br)c2)CC1 ; retrieve measured inhibition.
-0.85

Param item = CC(C)(C)c1nn(-c2ccccc2)c2[nH]c(=O)c(CNCc3ccccc3)cc12 ; retrieve measured inhibition.
3.75

Param item = CN(C)c1ccc(CN2CCCC(CNC(=O)c3ccc(-c4cccc(C(F)(F)F)c4)s3)C2)cc1 (centres undefined) ; retrieve measured inhibition.
-0.14

Param item = COc1ccc(Cl)c(CC2c3cc(O)c(Cl)cc3CCN2C)c1 (centres undefined) ; retrieve measured inhibition.
-1.58

Param item = CCCc1ccc(Nc2nc(C)cc(N(CC)CCCN3CCCCC3)n2)cc1 ; retrieve measured inhibition.
0.52
